Tested on: vaccinia virus
Conditions: 100 μM
Result type: % Viability (%)
Give bare numbers, in %.

Example entries begin here.
>  <Compound>
CCCCCCCCOCCCC(C)C1CCC2C3C(OCCCN)CC4CC(OCCCN)CCC4(C)C3CC(OCCCN)C12C (stereo not shown) [CSA-7]

>  <% Viability, %>
0.00

$$$$
>  <Compound>
CC(CCCO)C1CCC2C3C(NC(=O)CCCCCN)CC4CC(NC(=O)CCCCCN)CCC4(C)C3CC(NC(=O)CCCCCN)C12C (stereo not shown) [CSA-31]

>  <% Viability, %>
101.52

$$$$
>  <Compound>
CCCOCCCC(C)C1CCC2C3C(OCCCN)CC4CC(OCCCN)CCC4(C)C3CC(OCCCN)C12C (stereo not shown) [CSA-17]

>  <% Viability, %>
0.00

$$$$
>  <Compound>
CCCCCN(CCCCC)CCCC(C)C1CCC2C3C(OCCCN)CC4CC(OCCCN)CCC4(C)C3CC(OCCCN)C12C.Cl.Cl.Cl.Cl (stereo not shown) [CSA-90]

>  <% Viability, %>
0.48

$$$$

I'm hoping you can list % Viability for every compound here, please.
1. CC(CCCO)C1CCC2C3C(OCCCN)CC4CC(OCCCN)CCC4(C)C3CC(OCCCN)C12C (stereo not shown) [CSA-8]
2. CC(CCCNC(=O)CCC(=O)c1ccc2cc(N(C)C)ccc2c1)C1CCC2C3C(OCCCN)CC4CC(OCCCN)CCC4(C)C3CC(OCCCN)C12C (stereo not shown) [CSA-59]
3. CCCCCCCCN(CCCCCCCC)CCCC(C)C1CCC2C3C(OCCCN)CC4CC(OCCCN)CCC4(C)C3CC(OCCCN)C12C.Cl.Cl.Cl.Cl (stereo not shown) [CSA-91]

1.56
0.00
0.00

----------
Answer each item with its documented % Viability.
System: vaccinia virus
Conditions: 5 μM
Numbers only, in %.

>  <Compound>
CCCCCCCCNCCC[C@@H](C)[C@H]1CC[C@H]2[C@@H]3[C@H](OCCCN)C[C@@H]4C[C@H](OCCCN)CC[C@]4(C)[C@H]3C[C@H](OCCCN)[C@]12C

>  <Target>
vaccinia virus

>  <Numeric result>
37.50

$$$$

I'm hoping you can list % Viability for every compound here, please.
1. CC(CCCN)C1CCC2C3C(OCCCN)CC4CC(OCCCN)CCC4(C)C3CC(OCCCN)C12C (stereo not shown)
2. CCCOCCCC(C)C1CCC2C3C(OCCCN)CC4CC(OCCCN)CCC4(C)C3CC(OCCCN)C12C (stereo not shown)
3. CC(CCCO)C1CCC2C3C(NC(=O)CCCCCN)CC4CC(NC(=O)CCCCCN)CCC4(C)C3CC(NC(=O)CCCCCN)C12C (stereo not shown)
4. CCCCCCCCOCCCC(C)C1CCC2C3C(OCCCN)CC4CC(OCCCN)CCC4(C)C3CC(OCCCN)C12C (stereo not shown)
5. CC(CCCNCCCNCCCN)C1CCC2C3C(OCCCN)CC4CC(OCCCN)CCC4(C)C3CC(OCCCN)C12C (stereo not shown)
6. CC(CCCNC(=O)CCC(=O)c1ccc2cc(N(C)C)ccc2c1)C1CCC2C3C(OCCCN)CC4CC(OCCCN)CCC4(C)C3CC(OCCCN)C12C (stereo not shown)
7. CCCCCCCCN(CCCCCCCC)CCCC(C)C1CCC2C3C(OCCCN)CC4CC(OCCCN)CCC4(C)C3CC(OCCCN)C12C.Cl.Cl.Cl.Cl (stereo not shown)
8. CCCCCCCCNCCC[C@@H](C)[C@H]1CC[C@H]2[C@@H]3CC[C@@H]4C[C@H](OCCCN)CC[C@]4(C)[C@H]3C[C@H](OCCCN)[C@]12C

1: 98.88; 2: 53.18; 3: 99.24; 4: 0.56; 5: 103.91; 6: 97.83; 7: 0.00; 8: 41.89

Query (compound): CC(CCCO)C1CCC2C3C(OCCCN)CC4CC(OCCCN)CCC4(C)C3CC(OCCCN)C12C (stereo not shown) ; field requested: % Viability
61.87
